TESTED SYSTEM: trypsin (Bos taurus, UniProt P00760)
Sequence (P00760 24-246): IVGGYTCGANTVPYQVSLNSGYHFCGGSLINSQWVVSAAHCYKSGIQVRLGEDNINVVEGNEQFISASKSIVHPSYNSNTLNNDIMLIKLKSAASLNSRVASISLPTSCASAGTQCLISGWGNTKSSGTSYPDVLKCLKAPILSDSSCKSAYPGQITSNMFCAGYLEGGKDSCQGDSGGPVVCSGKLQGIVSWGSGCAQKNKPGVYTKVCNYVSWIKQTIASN
RECORDED METRIC: IC50

# IC50 (molecule: N=C(N)NCCC[C@H](NC(=O)[C@@H]1CC[C@H]2CN(C(=O)CCc3ccccc3)CC(=O)N21)C(=O)c1nccs1 [A] ) is 1 nM

Reference for the values: patent US6291678A
